Entry source: patent US10364240B2

Molecular target: CCR9 (Homo sapiens)
Construct: CCR9-expressing cells (such as a T cell line MOLT-4 cells)
Test: chemotaxis (conventional migration) assay and/or calcium mobilization (calcium flux) assay
Details: either or both of the chemotaxis assay and calcium mobilization assays; MOLT-4 cells, TECK
Protocol: MOLT-4 cells were obtained from the American Type Culture Collection (Manassas, Va.) and cultured in RPMI tissue culture medium supplemented with 10% fetal calf serum (FCS) in a humidified 5% CO2 incubator at 37° C. […] Conventional migration assay was used to determine the efficacy of potential receptor antagonists in blocking migration mediated through CCR9. […] The degree of inhibition was determined by comparing migration signals betweeen compound-treated and untreated cells. […]
Each entry below lists one item and its recorded IC50 value.

CS(=O)(=O)c1ccc(S(=O)(=O)Nc2ccc(Br)cc2C(=O)c2ccncc2)cc1; < 1000 nM
Cc1nc(C)c(-c2ccc(S(=O)(=O)Nc3ccc(Cl)cc3C(=O)c3ccncc3)cc2)o1; < 1000 nM
O=C(c1ncccn1)c1cc(Cl)ccc1NS(=O)(=O)c1ccc(-c2cnco2)cc1; < 1000 nM
COc1c(Cl)ccc(NS(=O)(=O)c2ccc(C(C)(C)C)cc2)c1C(=O)c1ccncc1 [drawing 520]; > 1000 nM
Cc1ccc(C(=O)c2cc(Cl)ccc2NS(=O)(=O)c2ccc(OC(F)(F)F)cc2)c[n+]1[O-]; < 1000 nM

Under CCR9 (Homo sapiens), report IC50 for CC1COC(C)(c2ccc(S(=O)(=O)Nc3ccc(Cl)cc3C(=O)c3ccncc3)cc2)O1 (stereo not shown)
< 1000 nM

Under CCR9 (Homo sapiens), report IC50 for Cc1cc(C(=O)c2cc(Cl)ccc2NS(=O)(=O)c2ccc(-c3ncco3)cc2)ccn1
< 1000 nM

====

Molecular target: CCR9 (Homo sapiens, UniProt P51686)
Construct: CCR9-expressing cells (such as a T cell line MOLT-4 cells)
Sequence (P51686 1-369): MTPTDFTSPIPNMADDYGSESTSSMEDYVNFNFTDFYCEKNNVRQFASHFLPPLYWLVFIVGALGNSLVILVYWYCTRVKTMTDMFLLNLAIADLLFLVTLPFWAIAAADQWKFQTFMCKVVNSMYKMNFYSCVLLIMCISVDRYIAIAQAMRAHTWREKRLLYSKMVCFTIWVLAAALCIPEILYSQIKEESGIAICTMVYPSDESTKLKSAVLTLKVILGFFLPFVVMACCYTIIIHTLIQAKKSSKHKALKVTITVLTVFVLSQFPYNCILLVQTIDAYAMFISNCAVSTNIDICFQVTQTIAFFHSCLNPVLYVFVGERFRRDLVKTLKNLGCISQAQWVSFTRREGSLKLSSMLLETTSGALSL
Experiment: chemotaxis (conventional migration) assay and/or calcium mobilization (calcium flux) assay
Details: either or both of the chemotaxis assay and calcium mobilization assays; MOLT-4 cells, TECK
pIC50: −log10 of the molar value.
Each entry below lists one item and its recorded pIC50 value.

O=C(c1ccncc1)c1cc(Cl)ccc1NS(=O)(=O)c1ccc(Br)cc1; > 6.00
O=C(c1ccncc1)c1cc(Cl)ccc1NS(=O)(=O)c1ccc2c(c1)CNCC2; > 6.00
CC(C)(C)c1ccc(S(=O)(=O)Nc2ccc(Cl)cc2C(=O)c2cnccn2)cc1; > 6.00
CC(C)(CO)c1ccc(S(=O)(=O)Nc2ccc(Cl)cc2C(=O)c2cc[n+]([O-])cc2)cc1; > 6.00
Cc1ccc(S(=O)(=O)Nc2ccc(Cl)cc2C(=O)c2ccncc2)cc1; > 6.00

Please look at this compound and report its pIC50: COC(=O)CCc1ccc(S(=O)(=O)Nc2ccc(Cl)cc2C(=O)c2ccnc(C)c2)cc1
< 6.00

Please look at this compound and report its pIC50: CC(C)(C)c1ccc(S(=O)(=O)Nc2ccc(Cl)cc2C(=O)c2ccc(S(C)(=O)=O)nc2)cc1
> 6.00
